test: APR_HepG2_P-H2AX_72hr: Apredica 72-hour HepG2 Assay for H2AX Phosphorylation (AID 2282916); conditions: imaging, actives raise or lower the signal;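 also: phospho-histone H2A.x immunostain intensity per cell marking DNA damage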
Calls of active or inactive are those of the source. The calls were made as follows: active = hit-call score of the fitted dose curve at least 0.9, where 1 is the maximum; inactive = score below 0.9.
The reply should name one outcome from active, inactive

[
  {
    "COMPOUND": "O=P(OCCCl)(OCCCl)OCCCl",
    "CLASS_LABEL": "inactive"
  },
  {
    "COMPOUND": "CN(C)c1ccccc1",
    "CLASS_LABEL": "inactive"
  },
  {
    "COMPOUND": "c1ccc(C2CO2)cc1 (centres undefined)",
    "CLASS_LABEL": "inactive"
  },
  {
    "COMPOUND": "CCOc1cccc(C2(N3CCN(c4ccccc4)CC3)CCC(C)CC2)c1 (centres undefined)",
    "CLASS_LABEL": "inactive"
  }
]

Okay, now this compound:
IN: // outcome(item) with item = CCN(CC)N=O
OUT: inactive

----------
Test: ATG_M_32_CIS: Attagene CIS-FACTORIAL HepG2 Assay for M32 Transcription Factor (Internal Marker) (AID 2282949);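 also: background control marker of the multiplexed CIS panel rather than a real target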
Details: HepG2 Attagene cis-factorial M32 reporter, mRNA; actives raise or lower the signal
Method: ATG_CIS is a cell-based, multiplexed-readout assay that uses HepG2, a human liver cell line, with measurements taken at 24 hours after chemical dosing in a 24-well plate.ATG_M_32_CIS is one of 52 assay component(s) measured or calculated from the ATG_CIS assay. […] This assay endpoint, ATG_M_32_CIS, was analyzed with bidirectional fitting relative to DMSO as the negative control and baseline of activity. […]
Calls of active or inactive are those of the source. How the source made its calls: active means hit-call score of the fitted dose curve at least 0.9, where 1 is the maximum; inactive means score below 0.9.
The reply should name one outcome from 1.0 = active, 0.0 = inactive

IN: // outcome(item) with item = c1ccc(C2CO2)cc1 (stereo not given)
OUT: 0.0

IN: // outcome(item) with item = CCCCCCCCOC(=O)c1ccc(C(=O)OCCCCCCCC)c(C(=O)OCCCCCCCC)c1
OUT: 0.0

IN: // outcome(item) with item = C[C@]12C=CC3=C4CCC(=O)C=C4CC[C@H]3[C@@H]1CC[C@@H]2O
OUT: 0.0

----------
test: BSK_SAg_PBMCCytotoxicity: PBMC Cytotoxicity Assessment in the BioMAP Diversity Plus: SAg Assay (AID 2283093); conditions: primary human HUVEC with PBMC;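 also: PBMC viability measured as Alamar Blue reduction fluorescence at 546/580 nm; fitted both ways against DMSO so a hit may be loss or gain of signal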
Activity calls are given as the source filed them. How the source made its calls: active means hit-call score of the fitted dose curve at least 0.9, where 1 is the maximum; inactive means score below 0.9.
The reply should name one outcome from yes (1) for active, no (0) for inactive

Would you please look over these solved cases?
[
  {
    "COMPOUND": "CN(C)c1ccc(C(=O)c2ccc(N(C)C)cc2)cc1",
    "CLASS_LABEL": "no (0)"
  },
  {
    "COMPOUND": "O=[N+]([O-])C(Br)(CO)CO",
    "CLASS_LABEL": "yes (1)"
  },
  {
    "COMPOUND": "CCN(CC)N=O",
    "CLASS_LABEL": "no (0)"
  },
  {
    "COMPOUND": "CC(C)(OOC(C)(C)c1ccccc1)c1ccccc1",
    "CLASS_LABEL": "yes (1)"
  }
]

IN: // outcome(item) with item = ClC1=C(Cl)C2(Cl)C3C(Cl)C=CC3C1(Cl)C2(Cl)Cl (stereo not drawn)
OUT: yes (1)

IN: // outcome(item) with item = Oc1ccccc1Cl
OUT: no (0)

----------
test: IUF_NPC2c_oligodendrocyte_migration_120hr: Leibniz Research Institute for Environmental Medicine (IUF) 120-hour Neural Progenitor Cell Migration Assay for Oligodendrocyte Migration (NPC2c) (AID 2284297);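 also: O4-positive oligodendrocyte migration distance divided by radial glia migration distance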
The source made the active and inactive calls. How the source made its calls: active means hit-call score of the fitted dose curve at least 0.9, where 1 is the maximum; inactive means score below 0.9.
The reply should name one outcome from active, inactive

Would you please look over these solved cases?
[
  {
    "COMPOUND": "OCCOCCO",
    "CLASS_LABEL": "inactive"
  },
  {
    "COMPOUND": "CCCCOC(=O)c1ccccc1C(=O)OCc1ccccc1",
    "CLASS_LABEL": "inactive"
  }
]

IN: // outcome(item) with item = [O-][Cl+]O
OUT: inactive

IN: // outcome(item) with item = COP(=S)(OC)SCN1C(=O)c2ccccc2C1=O
OUT: inactive

IN: // outcome(item) with item = CC(C)(C)C(O)(CCc1ccc(Cl)cc1)Cn1cncn1 (configuration not stated)
OUT: inactive

IN: // outcome(item) with item = CCC[CH2][Sn]([Cl])([CH2]CCC)[CH2]CCC
OUT: active

IN: // outcome(item) with item = O=P(OCCCl)(OCCCl)OCCCl
OUT: inactive

----------
assay: ATG_Oct_MLP_CIS: Attagene CIS-FACTORIAL HepG2 Assay for human Octamer-Binding Transcription Factor (Oct) (AID 2282993); conditions: HepG2 Attagene cis-factorial Oct reporter, mRNA; actives raise or lower the signal
The source made the active and inactive calls. The calls were made as follows: active = hit-call score of the fitted dose curve at least 0.9, where 1 is the maximum; inactive = score below 0.9.
The reply should name one outcome from active, inactive

Would you please look over these solved cases?
[
  {
    "COMPOUND": "[As]#[In]",
    "CLASS_LABEL": "inactive"
  },
  {
    "COMPOUND": "CO[C@@H]1[C@H](OC(=O)NC(=O)CCl)CC[C@]2(CO2)[C@H]1[C@@]1(C)O[C@@H]1CC=C(C)C",
    "CLASS_LABEL": "active"
  },
  {
    "COMPOUND": "Cc1cc(N=Nc2ccccc2C)ccc1N",
    "CLASS_LABEL": "active"
  },
  {
    "COMPOUND": "OCCOCCO",
    "CLASS_LABEL": "inactive"
  },
  {
    "COMPOUND": "Oc1ccc2ccc3cccc4ccc1c2c34",
    "CLASS_LABEL": "inactive"
  },
  {
    "COMPOUND": "CCOc1cccc(C2(N3CCN(c4ccccc4)CC3)CCC(C)CC2)c1 (stereo not drawn)",
    "CLASS_LABEL": "inactive"
  },
  {
    "COMPOUND": "CC(C)(C)C(O)(CCc1ccc(Cl)cc1)Cn1cncn1 (stereo not drawn)",
    "CLASS_LABEL": "inactive"
  },
  {
    "COMPOUND": "CCC(C)c1ccc(O)cc1 (stereo not drawn)",
    "CLASS_LABEL": "active"
  }
]

IN: // outcome(item) with item = CCCCOC(=O)c1ccccc1C(=O)OCc1ccccc1
OUT: inactive

IN: // outcome(item) with item = CC(C)COC(=O)c1ccccc1C(=O)OCC(C)C
OUT: active

----------
read-out: Monocyte Chemoattractant Protein-1 (MCP1), CCL2 (gene 6347); assay: BSK_4H_MCP1: BioMAP Diversity Plus: 4H Assay for Monocyte Chemoattractant Protein-1 (MCP1) Biomarker Activity (AID 2283018); conditions: primary human endothelial cells (HUVEC); actives raise or lower the signal
The source made the active and inactive calls. Rule for the calls: active = hit-call score of the fitted dose curve at least 0.9, where 1 is the maximum; inactive = score below 0.9.
The reply should name one outcome from Y for active, N for inactive

Would you please look over these solved cases?
[
  {
    "COMPOUND": "CCCCOC(=O)c1ccccc1C(=O)OCc1ccccc1",
    "CLASS_LABEL": "Y"
  },
  {
    "COMPOUND": "Nc1ccc(Oc2ccc(N)cc2)cc1",
    "CLASS_LABEL": "N"
  },
  {
    "COMPOUND": "Cc1cc(N=Nc2ccccc2C)ccc1N",
    "CLASS_LABEL": "N"
  },
  {
    "COMPOUND": "CN(C)c1ccccc1",
    "CLASS_LABEL": "N"
  },
  {
    "COMPOUND": "Cc1ccc([N+](=O)[O-])cc1",
    "CLASS_LABEL": "N"
  },
  {
    "COMPOUND": "CCCCC(CC)COC(=O)c1ccc(C(=O)OCC(CC)CCCC)c(C(=O)OCC(CC)CCCC)c1 (centres undefined)",
    "CLASS_LABEL": "N"
  }
]

IN: // outcome(item) with item = OCCCBr
OUT: N

IN: // outcome(item) with item = CNC(=O)Oc1cccc2c1OC(C)(C)C2
OUT: N

IN: // outcome(item) with item = O=C(N[C@H](c1ccccc1)[C@@H]1CN2CCC1CC2)c1c(Cl)ccc(C(F)(F)F)c1Cl
OUT: N

IN: // outcome(item) with item = CCOC(=O)[C@]1(c2ccccc2)Oc2ccccc2[C@@H]1N
OUT: N

IN: // outcome(item) with item = Nc1ccc(Cl)cc1N
OUT: N

----------
test: Tanguay_ZF_120hpf_SNOU_legacy: (Legacy) Oregon State University Tanguay Lab 120 Hour Post-fertilization zebrafish Assay for Snout Malformation (AID 2283637)
Results filed as inconclusive are left out. Active and inactive are the calls of the source. The calls were made as follows: active = hit-call score of the fitted dose curve at least 0.9, where 1 is the maximum; inconclusive = response in the unintended direction; inactive = score below 0.9.
The reply should name one outcome from Y = active, N = inactive

Would you please look over these solved cases?
[
  {
    "COMPOUND": "N#CC(Br)(Br)C(N)=O",
    "CLASS_LABEL": "N"
  },
  {
    "COMPOUND": "COC(=O)Nc1nc2ccccc2[nH]1",
    "CLASS_LABEL": "N"
  },
  {
    "COMPOUND": "CCCSC(=O)N(CCC)CCC",
    "CLASS_LABEL": "N"
  },
  {
    "COMPOUND": "CNC(=O)Oc1cccc2c1OC(C)(C)C2",
    "CLASS_LABEL": "Y"
  },
  {
    "COMPOUND": "O=[N+]([O-])C(Br)(CO)CO",
    "CLASS_LABEL": "N"
  },
  {
    "COMPOUND": "[As]#[In]",
    "CLASS_LABEL": "N"
  },
  {
    "COMPOUND": "OCCCl",
    "CLASS_LABEL": "N"
  },
  {
    "COMPOUND": "CN(C)c1ccc(C(=O)c2ccc(N(C)C)cc2)cc1",
    "CLASS_LABEL": "Y"
  },
  {
    "COMPOUND": "CCN(CC)N=O",
    "CLASS_LABEL": "N"
  },
  {
    "COMPOUND": "Cc1ccc([N+](=O)[O-])cc1",
    "CLASS_LABEL": "N"
  }
]

IN: // outcome(item) with item = CC(C)N(Cc1ccccc1)C(=O)C(C)(C)C
OUT: N

IN: // outcome(item) with item = Clc1ccc(C(c2ccc(Cl)cc2)C(Cl)Cl)cc1
OUT: N

IN: // outcome(item) with item = CCOC(=O)[C@]1(c2ccccc2)Oc2ccccc2[C@@H]1N
OUT: N

IN: // outcome(item) with item = Cc1ccc(N)cc1
OUT: N

IN: // outcome(item) with item = [O-][Cl+]O
OUT: N
